Biological target: Myc proto-oncogene protein (Homo sapiens)
Experiment: ATG_Myc_CIS: Attagene CIS-FACTORIAL HepG2 Assay for human Myelocytomatosis (Myc) Proto-Oncogene Transcription Factor (AID 2282990)
Settings: HepG2, Attagene cis-reporter transcription factor activity; actives raise or lower the signal
Calls of active or inactive are those of the source. How the source made its calls: active means hit-call score of the fitted dose curve at least 0.9, where 1 is the maximum; inactive means score below 0.9.
recorded endpoint: outcome

Example entries and their recorded answers appear below.
INSERT INTO results (compound, result) VALUES
  ('CO[Si](C)(CCC(F)(F)C(F)(F)C(F)(F)C(F)(F)C(F)(F)C(F)(F)F)OC', 'inactive'),
  ('NC(=O)C(F)(F)C(F)(F)C(F)(F)C(F)(F)C(F)(F)C(F)(F)C(F)(F)F', 'inactive'),
  ('NCC(F)(F)C(F)(F)C(F)(F)C(F)(F)C(F)(F)C(F)(F)C(F)(F)C(F)(F)F', 'inactive'),
  ('NC(=O)C(F)(F)C(F)(F)C(F)(F)F', 'inactive'),
  ('O=c1[nH]cccc1O', 'inactive');

Now consider the entry below.
Need outcome of CC1=CC2C3C=CC(C3)C2C1C (stereo unspecified) , thanks.
inactive

----------
Target: Cellular tumor antigen p53 (Homo sapiens)
Assay: TOX21_p53_BLA_p2_ratio: Tox21 HCT-116 p53 Agonism Beta-lactamase Assay, Ratio, Phase 2 (AID 2283592)
Records with an inconclusive call do not appear. Calls of active or inactive are those of the source. How the source made its calls: active means hit-call score of the fitted dose curve at least 0.9, where 1 is the maximum; inconclusive means response in the unintended direction; inactive means score below 0.9.
recorded endpoint: AC50

Example entries and their recorded answers appear below.
INSERT INTO results (compound, recorded_endpoint, result) VALUES
  ('O=C1C=CC(=O)N1c1ccccc1', 'AC50', '80.4 µM (active)'),
  ('CCOC(=O)CCC(C)=O', 'AC50', 'inactive'),
  ('CCCCOC(=O)C(C)O (stereo unspecified)', 'AC50', 'inactive'),
  ('O=C1c2c(O)ccc(Nc3ccc(CCO)cc3)c2C(=O)c2c([N+](=O)[O-])ccc(O)c21', 'AC50', 'inactive'),
  ('CCC(Cc1c(I)cc(I)c(N)c1I)C(=O)O (stereo unspecified)', 'AC50', 'inactive'),
  ('CCC(=O)OC(C)c1ccccc1 (stereo unspecified)', 'AC50', 'inactive');

Below are some compounds; for each one, tell me its AC50.
1. COC(=O)c1ccc(C=O)cc1
2. CC(C)CCCC(C)CCO (stereo unspecified)
3. CCCCC(CC)COC(=O)c1ccc(N(C)C)cc1 (stereo unspecified)
4. CO[Si](CCCOCC1CO1)(OC)OC (stereo unspecified)
5. CC(=O)CCC(C)C

inactive
inactive
inactive
86.5 µM (active)
inactive

Below are some compounds; for each one, tell me its AC50.
1. CCc1cc(Cc2cc(CC)c(N)c(CC)c2)cc(CC)c1N
2. CCC(C)CO (stereo unspecified)
3. Cc1cc(=O)[nH]c(C(C)C)n1
4. Brc1nc2ccccc2s1
5. Cc1cc(O)c(C(C)(C)C)cc1C(C)(C)C

inactive
inactive
inactive
inactive
70.8 µM (active)

----------
Read-out: Pselectin, SELP (gene 6403)
Experiment: BSK_4H_Pselectin: BioMAP Diversity Plus: 4H Assay for Pselectin Biomarker Activity (AID 2283026)
Conditions: primary human endothelial cells (HUVEC); actives raise or lower the signal
Protocol: BSK_4H is a cell-based, multiplexed-readout assay that uses umbilical vein endothelium, a human vascular primary cell, with measurements taken at 24 hours after chemical dosing in a 96-well plate.BSK_4H_Pselectin is an assay component measured in the BSK_4H assay. It measures P-Selectin antibody related to regulation of gene expression using ELISA technology.Data from the assay component BSK_4H_Pselectin was analyzed into 1 assay endpoint. […]
Calls of active or inactive are those of the source. The calls were made as follows: active = hit-call score of the fitted dose curve at least 0.9, where 1 is the maximum; inactive = score below 0.9.
Tick one outcome: active, inactive

Example cases with answers are listed next.
INSERT INTO assay_data (compound, assigned_category) VALUES
  ('CC1=CC2C3C=CC(C3)C2C1C (stereo unspecified)', 'inactive'),
  ('O=C(Cl)C(F)(F)C(F)(F)C(F)(F)C(F)(F)C(F)(F)C(F)(F)C(F)(F)F', 'inactive'),
  ('O=C=Nc1cccc2c(N=C=O)cccc12', 'inactive'),
  ('CNS(=O)(=O)C(F)(F)C(F)(F)C(F)(F)C(F)(F)C(F)(F)C(F)(F)C(F)(F)C(F)(F)F', 'inactive'),
  ('O=C(O)CCC(F)(F)C(F)(F)C(F)(F)C(F)(F)C(F)(F)C(F)(F)C(F)(F)F', 'inactive'),
  ('O=C1C=CC(=O)N1c1ccc(Cc2ccc(N3C(=O)C=CC3=O)cc2)cc1', 'active'),
  ('COC(F)(C(F)F)C(F)(F)F (stereo unspecified)', 'inactive'),
  ('O=C(Cl)C(F)(F)C(F)(F)C(F)(F)C(F)(F)C(F)(F)C(F)(F)F', 'inactive'),
  ('CCOC(=O)CC(=O)C(F)(F)C(F)(F)F', 'inactive'),
  ('NC(=O)C(F)(F)C(F)(F)C(F)(F)F', 'inactive');

Please turn your attention to the following entry.
Could you kindly confirm the outcome this assay logged for Cc1ccc(O)c(-n2nc3ccccc3n2)c1 ?
inactive

----------
Biological target: Estrogen receptor (Homo sapiens)
Test: CCTE_Deisenroth_AIME_384WELL_LUC_Active: CCTE's 384-well Estrogen Receptor Transactivation Assay with AIME metabolic competence (ERTA luciferase; metabolism positive), Deisenroth Lab (AID 2284030)
Inconclusive results are not listed. Activity calls are given as the source filed them. How the source made its calls: active means hit-call score of the fitted dose curve at least 0.9, where 1 is the maximum; inconclusive means response in the unintended direction; inactive means score below 0.9.
Tick one outcome: 1 (active), 0 (inactive)

Example cases with answers are listed next.
INSERT INTO results (compound, assigned_category) VALUES
  ('CC(=O)CCC(C)C', 0),
  ('Cc1ccc(O)c(-n2nc3ccccc3n2)c1', 1),
  ('N#Cc1ccccc1O', 0),
  ('OCC1CCCO1 (stereo not drawn)', 0);

Please turn your attention to the following entry.
Could you kindly confirm the outcome this assay logged for CCCCOC(=O)C(C)O (stereo not drawn) ?
0

----------
Assay: ATG_SREBP_CIS: Attagene CIS-FACTORIAL HepG2 Assay for human Sterol Regulatory Element Binding (SREBP) (AID 2282962)
Details: HepG2 Attagene cis-factorial SREBP reporter, mRNA; actives raise or lower the signal
Active and inactive are the calls of the source. Rule for the calls: active = hit-call score of the fitted dose curve at least 0.9, where 1 is the maximum; inactive = score below 0.9.
Tick one outcome: active, inactive

INSERT INTO assay_data (compound, assigned_category) VALUES
  ('Nc1cc([N+](=O)[O-])cc(Cl)c1O', 'inactive');

Could you kindly confirm the outcome this assay logged for CC(C)CCCC(C)CCO (configuration not stated) ?
inactive

Could you kindly confirm the outcome this assay logged for CCCCCCCCCc1ccc(OCCO)cc1 ?
active

Could you kindly confirm the outcome this assay logged for CCOCN(C(=O)CS(=O)(=O)O)c1c(C)cccc1CC ?
inactive

Could you kindly confirm the outcome this assay logged for C[C@]12CC[C@H]3C(=CCc4cc(O)ccc43)[C@@H]1CCC2=O ?
inactive

Could you kindly confirm the outcome this assay logged for O=C1C=CC(=O)N1c1ccccc1 ?
inactive

Could you kindly confirm the outcome this assay logged for NC(=O)C(F)(F)C(F)(F)C(F)(F)F ?
inactive

----------
Assay: BSK_BT_Bcell_Proliferation: Viability Assessment in the BioMAP Diversity Plus: BT Assay for B cell Proliferation (AID 2284227)
Settings: primary human B cells with PBMC
Activity calls are given as the source filed them. How the source made its calls: active means hit-call score of the fitted dose curve at least 0.9, where 1 is the maximum; inactive means score below 0.9.
Tick one outcome: true (1) for active, false (0) for inactive

INSERT INTO assay_data (compound, assigned_category) VALUES
  ('Brc1nc2ccccc2s1', 'false (0)');

Could you kindly confirm the outcome this assay logged for Cc1cc(C)c(O)c(C(C)(C)C)c1 ?
false (0)

Could you kindly confirm the outcome this assay logged for CC1=CC2C3C=CC(C3)C2C1C (stereo unspecified) ?
false (0)

Could you kindly confirm the outcome this assay logged for CN(C(=O)C(F)(F)C(F)(F)C(F)(F)F)[Si](C)(C)C ?
false (0)

----------
Test: ATG_EGR_CIS: Attagene CIS-FACTORIAL HepG2 Assay for human Early Growth Response 1 (EGR1) (AID 2282938)
Conditions: HepG2 Attagene CIS-FACTORIAL EGR reporter mRNA; actives raise or lower the signal
Calls of active or inactive are those of the source. The calls were made as follows: active = hit-call score of the fitted dose curve at least 0.9, where 1 is the maximum; inactive = score below 0.9.
Tick one outcome: active, inactive

Example cases with answers are listed next.
INSERT INTO measurements (compound, assigned_category) VALUES
  ('CCCCOC(=O)C(C)O (stereo unspecified)', 'inactive'),
  ('CC(C)(C)c1cc(CCC(=O)NCCCCCCNC(=O)CCc2cc(C(C)(C)C)c(O)c(C(C)(C)C)c2)cc(C(C)(C)C)c1O', 'inactive'),
  ('Cc1cc(O)c(C(C)(C)C)cc1C(C)(C)C', 'inactive'),
  ('O=C1C=CC(=O)N1c1ccc(Cc2ccc(N3C(=O)C=CC3=O)cc2)cc1', 'active');

Could you kindly confirm the outcome this assay logged for OCC(F)(F)C(F)(F)C(F)(F)C(F)(F)C(F)(F)C(F)(F)C(F)(F)C(F)(F)CO ?
inactive

Could you kindly confirm the outcome this assay logged for NCC(F)(F)C(F)(F)C(F)(F)C(F)(F)C(F)(F)C(F)(F)C(F)(F)C(F)(F)F ?
inactive

Could you kindly confirm the outcome this assay logged for CCc1cc(Cc2cc(CC)c(N)c(CC)c2)cc(CC)c1N ?
inactive

Could you kindly confirm the outcome this assay logged for CN(N=O)C(=O)N[C@@H]1[C@@H](O)[C@H](O)[C@@H](CO)O[C@@H]1O ?
inactive

Could you kindly confirm the outcome this assay logged for CCCCCCCCCc1ccc(OCCO)cc1 ?
inactive

Could you kindly confirm the outcome this assay logged for Cc1ccc(O)c(-n2nc3ccccc3n2)c1 ?
inactive

Could you kindly confirm the outcome this assay logged for CCOC(=O)CCC(C)=O ?
inactive

Cited source for all entries: PubChem BioAssay (EPA / NIEHS)
